Quick reference: pEC50 of the listed items.
tested on: HCV 1b-BB7 subgenomic replicon; assay: microbe, parasite or virus in culture; format: cell-based, HCV genotype 1b; conditions: Hepatitis C virus, stable replicon, strain 1b BB7, 5% FBS, no human plasma; read-out: 1b BB7 5% FBS EC50
pEC50: −log10 of the molar value.

{"lineNotation": "CS(=O)(=O)CCN(c1cc2oc(-c3ccc(F)cc3)c(C3=NOCCN3)c2cc1C1CC1)S(C)(=O)=O", "pEC50": 7.82}
{"lineNotation": "CS(=O)(=O)CCCN(c1cc2oc(-c3ccc(F)cc3)c(C3=NOCCN3)c2cc1C1CC1)S(C)(=O)=O", "pEC50": 7.96}
{"lineNotation": "CS(=O)(=O)Nc1cc2oc(-c3ccc(F)cc3)c(-c3nc(Cl)c[nH]3)c2cc1C1CC1", "pEC50": 6.00}

###

Quick reference: pEC50 of the listed items.
test system: HCV 1b-BB7 subgenomic replicon; test: microbe, parasite or virus in culture; type: cell-based, HCV genotype 1b; conditions: Hepatitis C virus, stable replicon, strain 1b BB7, 5% FBS; read-out: 1b BB7 5% FBS EC50
pEC50: −log10 of the molar value.

{"molecule": "CC(C)(C#N)CCCCN(c1cc2oc(-c3ccc(F)cc3)c(C3=NOCCN3)c2cc1C1CC1)S(C)(=O)=O [Example 115]", "pEC50": 7.85}
{"molecule": "CS(=O)(=O)N(CCCC(=O)N1CCOCC1)c1cc2oc(-c3ccc(F)cc3)c(-c3ncc[nH]3)c2cc1C1CC1 [Example 103]", "pEC50": 7.86}
{"molecule": "CS(=O)(=O)N(Cc1cnc(-c2c[nH]c(=O)[nH]c2=O)s1)c1ccc2c(-c3ncc[nH]3)c(-c3ccccc3)oc2c1 [Example 29]", "pEC50": 6.68}
{"molecule": "Cc1c[nH]c(-c2c(-c3ccc(F)cc3)oc3cc(N(CCCCO)S(C)(=O)=O)c(C4CC4)cc23)n1 [Example 187]", "pEC50": 7.20}
{"molecule": "CS(=O)(=O)N(CCCc1n[nH]c(=O)o1)c1cc2oc(-c3ccc(F)cc3)c(-c3ncc[nH]3)c2cc1C1CC1 [Example 179]", "pEC50": 8.05}
{"molecule": "CS(=O)(=O)N(CCCF)c1cc2oc(-c3ccc(F)cc3)c(-c3ncc[nH]3)c2cc1C1CC1 [Example 85]", "pEC50": 8.01}
{"molecule": "CS(=O)(=O)N(CCCS(N)(=O)=O)c1cc2oc(-c3ccc(F)cc3)c(C3=NOCN3)c2cc1C1CC1 [Example 15]", "pEC50": 8.00}
{"molecule": "Cc1c[nH]c(-c2c(-c3ccc(F)cc3)oc3cc(N(CCO)S(C)(=O)=O)c(C4CC4)cc23)n1 [Example 189]", "pEC50": 6.94}
{"molecule": "CS(=O)(=O)N(CCCCF)c1cc2oc(-c3ccc(F)cc3)c(-c3ncc[nH]3)c2cc1C1CC1 [Example 83]", "pEC50": 8.09}
{"molecule": "CS(=O)(=O)N(Cc1cnc(-c2cccc(CO)c2)s1)c1ccc2c(-c3ncc[nH]3)c(-c3ccccc3)oc2c1 [Example 28]", "pEC50": 7.62}
{"molecule": "CNS(=O)(=O)CCCN(c1cc2oc(-c3ccc(F)cc3)c(-c3ncc[nH]3)c2cc1C1CC1)S(C)(=O)=O [Example 86]", "pEC50": 8.17}
{"molecule": "CCCN(c1cc2oc(-c3ccc(F)cc3)c(-c3ncc[nH]3)c2cc1C1CC1)S(C)(=O)=O [Example 64]", "pEC50": 7.92}
{"molecule": "CS(=O)(=O)N(CCCN1CCS(=O)(=O)CC1)c1cc2oc(-c3ccc(F)cc3)c(C3=NOCCN3)c2cc1C1CC1 [Example 114]", "pEC50": 7.48}
{"molecule": "CCOC(=O)CCCN(c1cc2oc(-c3ccc(F)cc3)c(C3=NOCCN3)c2cc1C1CC1)S(C)(=O)=O [Example 121]", "pEC50": 7.17}

These measurements were taken from patent US20160355530A1.
